Target: μ-opioid receptor (Homo sapiens (Human))
Test: μ-opioid receptor radioligand dose-displacement binding assay ([3H]-diprenorphine)
Conditions: binding affinity, [3H]-diprenorphine displacement; read-out: Ki (nM) Opioid Receptor μ
Here, each record is paired with measured Ki data.
Please reply with the bare figure in nM and do not write the unit itself.

Solved entries:
# input What Ki appears in the records for this compound with μ-opioid receptor (Homo sapiens (Human))? NC(=O)c1cc2c([nH]c1=O)C[C@]13CCN(CC4CC4)[C@H](Cc4ccc(O)cc41)[C@]3(O)C2
# output 6.55

# input Follow-up entry: NC(=O)C[C@H](NC(=O)c1cc2c([nH]c1=O)C[C@]13CCN(CC4CC4)[C@H](Cc4ccc(O)cc41)[C@@H]3C2)C(N)=O
# output 0.71

# input Follow-up entry: CN1CC[C@]23Cc4[nH]c(=O)c(C(N)=O)cc4C[C@@]2(O)[C@H]1Cc1ccc(O)cc13
# output 651

# input Follow-up entry: NC(=O)[C@@H]1CCCN1C(=O)c1cc2c([nH]c1=O)C[C@]13CCN(CC4CC4)[C@H](Cc4ccc(O)cc41)[C@@H]3C2
# output 0.41

# input Follow-up entry: O=C(O)c1cc2c([nH]c1=O)C[C@]13CCN(CC4CC4)[C@H](Cc4ccc(O)cc41)[C@]3(O)C2
# output 3.11

# input Follow-up entry: NC(=O)[C@H](Cc1ccccc1)NC(=O)c1cc2c([nH]c1=O)C[C@]13CCN(CC4CC4)[C@H](Cc4ccc(O)cc41)[C@@H]3C2
# output 1.86

---
# input What Ki appears in the records for this compound with μ-opioid receptor (Homo sapiens (Human))? O=C(O)c1cc2c([nH]c1=O)C[C@]13CCN(CC4CC4)[C@H](Cc4ccc(O)cc41)[C@@H]3C2
# output 0.52

# input Follow-up entry: CC(C)C[C@H](NC(=O)c1cc2c([nH]c1=O)C[C@]13CCN(CC4CC4)[C@H](Cc4ccc(O)cc41)[C@@H]3C2)C(N)=O
# output 3.95

###

Here, each record is paired with measured Emax data.
Biological target: UniProt:P35372
Assay: μ-opioid receptor [35S]GTPγS functional assay, U-2 OS cells
Type: biochemical
Conditions: relative to DAMGO; U-2 OS cells
Please reply with the bare figure in % and do not write the unit itself.

Solved entries:
# input Which Emax value is on record for NC(=O)c1cc2c([nH]c1=O)C[C@]13CCN(CC(F)(F)F)[C@H](Cc4ccc(O)cc41)[C@]3(O)C2 ?
# output 8.5

# input Follow-up entry: NC(=O)c1cc2c([nH]c1=O)C[C@]13CCN(CCc4ccccc4)[C@H](Cc4ccc(O)cc41)[C@]3(O)C2
# output 71.3

# input Follow-up entry: C[C@H](NC(=O)c1cc2c([nH]c1=O)C[C@]13CCN(C)[C@H](Cc4ccc(O)cc41)[C@]3(O)C2)C(N)=O
# output 95

---
# input Which Emax value is on record for CN1CC[C@]23Cc4[nH]c(=O)c(C(=O)NCc5ccccc5)cc4C[C@@]2(O)[C@H]1Cc1ccc(O)cc13 ?
# output 90

# input Follow-up entry: CC(C)C[C@H](NC(=O)c1cc2c([nH]c1=O)C[C@]13CCN(C)[C@H](Cc4ccc(O)cc41)[C@]3(O)C2)C(N)=O
# output 97.7

# input Follow-up entry: CN1CC[C@]23Cc4c(cc(C(N)=O)c(=O)n4C)C[C@@]2(O)[C@H]1Cc1ccc(O)cc13
# output 33.7

# input Follow-up entry: NC(=O)c1cc2c([nH]c1=O)C[C@]13CCN(CCF)[C@H](Cc4ccc(O)cc41)[C@]3(O)C2
# output 2.5

# input Follow-up entry: CN1CC[C@]23Cc4[nH]c(=O)c(C(=O)N[C@@H](Cc5ccccc5)C(N)=O)cc4C[C@@]2(O)[C@H]1Cc1ccc(O)cc13
# output 97.7

# input Follow-up entry: O=C(c1cc2c([nH]c1=O)C[C@]13CCN(CC4CC4)[C@H](Cc4ccc(O)cc41)[C@@H]3C2)N1CCCC1
# output 17.6

# input Follow-up entry: CN1CC[C@]23Cc4[nH]c(=O)c(C(=O)N5CCOCC5)cc4C[C@@]2(O)[C@H]1Cc1ccc(O)cc13
# output 82

###

Target: UniProtKB P35372
Assay: μ-opioid receptor [35S]GTPγS functional assay, HEK-293 or CHO cells
Format: biochemical
Settings: relative to DAMGO; HEK-293 or CHO cells
Here, each record is paired with measured Emax data.
Please reply with the bare figure in % and do not write the unit itself.

Solved entries:
# input Which Emax value is on record for NC(=O)C[C@H](NC(=O)c1cc2c([nH]c1=O)C[C@]13CCN(CC4CC4)[C@H](Cc4ccc(O)cc41)[C@@H]3C2)C(N)=O [Compound 26] ?
# output 38

# input Follow-up entry: COc1ccc2c(c1)[C@]13CCN(CC4CC4)[C@H](C2)[C@@H]1Cc1cc(C(N)=O)c(=O)[nH]c1C3 [Compound 6]
# output 19.7

# input Follow-up entry: O=C(c1cc2c([nH]c1=O)C[C@]13CCN(CC4CC4)[C@H](Cc4ccc(O)cc41)[C@@H]3C2)N1Cc2ccccc2C1 [Compound 64]
# output 3.5

---
# input Which Emax value is on record for O=C(N[C@@H]1c2ccccc2C[C@@H]1O)c1cc2c([nH]c1=O)C[C@]13CCN(CC4CC4)[C@H](Cc4ccc(O)cc41)[C@@H]3C2 [Compound 61] ?
# output -1

# input Follow-up entry: NC(=O)[C@@H]1CCCN1C(=O)c1cc2c([nH]c1=O)C[C@]13CCN(CC4CC4)[C@H](Cc4ccc(O)cc41)[C@@H]3C2 [Compound 25]
# output 29.3

# input Follow-up entry: NC(=O)[C@H](Cc1ccccc1)NC(=O)c1cc2c([nH]c1=O)C[C@]13CCN(CC4CC4)[C@H](Cc4ccc(O)cc41)[C@@H]3C2 [Compound 23]
# output 41.3

###

Molecular target: κ-opioid receptor (Homo sapiens (Human), UniProt P41145)
Assay: κ-opioid receptor [35S]GTPγS functional assay, HEK-293 or CHO cells
Assay type: biochemical
quantity-measured: pEC50
Units for pEC50: none; it is -log10 of a concentration expressed in mol/L.

# input What pEC50 appears in the records for this compound with κ-opioid receptor (Homo sapiens (Human), UniProt P41145)? NC(=O)c1cc2c([nH]c1=O)C[C@]13CCN(CC4CC4)[C@H](Cc4ccc(O)cc41)[C@@H]3C2
# output 7.47

# input Follow-up entry: COC(=O)c1cc2c([nH]c1=O)C[C@]13CCN(CC4CC4)[C@H](Cc4ccc(OC)cc41)[C@]3(O)C2
# output 6.23

# input Follow-up entry: NC(=O)[C@@H]1CCCN1C(=O)c1cc2c([nH]c1=O)C[C@]13CCN(CC4CC4)[C@H](Cc4ccc(O)cc41)[C@@H]3C2
# output 8.35

# input Follow-up entry: CC(C)C[C@H](NC(=O)c1cc2c([nH]c1=O)C[C@]13CCN(CC4CC4)[C@H](Cc4ccc(O)cc41)[C@@H]3C2)C(N)=O
# output 8.60

###

Target: UniProt P35372
Assay: μ-opioid receptor [35S]GTPγS functional assay, U-2 OS cells
Format: biochemical
Lab note - cut at 200 nM for EC50: yes if strictly below, no if not.

# input Does the reported EC50 of the following compound sit strictly below 200 nM? CN1CC[C@]23Cc4[nH]c(=O)c(C(=O)NCC5CCCCC5)cc4C[C@@]2(O)[C@H]1Cc1ccc(O)cc13 [Compound 44]
# output no

# input Follow-up entry: NC(=O)c1cc2c([nH]c1=O)C[C@]13CCN(CCF)[C@H](Cc4ccc(O)cc41)[C@]3(O)C2 [Compound 35]
# output no

# input Follow-up entry: CN(C)C(=O)c1cc2c([nH]c1=O)C[C@]13CCN(C)[C@H](Cc4ccc(O)cc41)[C@]3(O)C2 [Compound 46]
# output yes

---
# input Does the reported EC50 of the following compound sit strictly below 200 nM? O=C(c1cc2c([nH]c1=O)C[C@]13CCN(CC4CC4)[C@H](Cc4ccc(O)cc41)[C@@H]3C2)N1CCCC1 [Compound 55]
# output yes

# input Follow-up entry: NC(=O)c1cc2c([nH]c1=O)C[C@]13CCN(CC(F)(F)F)[C@H](Cc4ccc(O)cc41)[C@]3(O)C2 [Compound 34]
# output no

# input Follow-up entry: NC(=O)c1cc2c([nH]c1=O)C[C@]13CCN(CCc4ccccc4)[C@H](Cc4ccc(O)cc41)[C@]3(O)C2 [Compound 37]
# output yes

# input Follow-up entry: CN1CC[C@]23Cc4[nH]c(=O)c(C(=O)N5CCOCC5)cc4C[C@@]2(O)[C@H]1Cc1ccc(O)cc13 [Compound 47]
# output yes

# input Follow-up entry: O=C(c1ccccc1)c1cc2c([nH]c1=O)C[C@]13CCN(CC4CC4)[C@H](Cc4ccc(O)cc41)[C@]3(O)C2 [Compound 59]
# output no

# input Follow-up entry: CC(C)CCNC(=O)c1cc2c([nH]c1=O)C[C@]13CCN(C)[C@H](Cc4ccc(O)cc41)[C@]3(O)C2 [Compound 49]
# output no

# input Follow-up entry: CN1CC[C@]23Cc4[nH]c(=O)c(C(=O)NCc5ccccc5)cc4C[C@@]2(O)[C@H]1Cc1ccc(O)cc13 [Compound 45]
# output no

# input Follow-up entry: CC(C)C[C@H](NC(=O)c1cc2c([nH]c1=O)C[C@]13CCN(C)[C@H](Cc4ccc(O)cc41)[C@]3(O)C2)C(N)=O [Compound 52]
# output no

# input Follow-up entry: CN1CC[C@]23Cc4[nH]c(=O)c(C(=O)N5CCC[C@H]5C(N)=O)cc4C[C@@]2(O)[C@H]1Cc1ccc(O)cc13 [Compound 53]
# output yes

# input Follow-up entry: COc1ccc2c(c1)[C@]13CCN[C@H](C2)[C@]1(O)Cc1cc(C(N)=O)c(=O)[nH]c1C3 [Compound 32]
# output no

# input Follow-up entry: CN1CC[C@]23Cc4[nH]c(=O)c(C(=O)O)cc4C[C@@]2(O)[C@H]1Cc1ccc(O)cc13 [Compound 41]
# output yes

Source: patent US8980906B2
